# RECORDED CONDITIONS: in methanol, 308.15 K
OUTCOME MEASURE: solubility (mole fraction)

O=C1C(CCS(=O)c2ccccc2)C(=O)N(c2ccccc2)N1c1ccccc1 (stereo unspecified)
0.00864

* * *

# RECORDED CONDITIONS: in acetone, 303.15 K
OUTCOME MEASURE: solubility (mole fraction)

O=C1C(CCS(=O)c2ccccc2)C(=O)N(c2ccccc2)N1c1ccccc1 (stereo unspecified)
0.0293

* * *

# RECORDED CONDITIONS: in methyl acetate, 283.15 K
OUTCOME MEASURE: solubility (mole fraction)

O=C1C(CCS(=O)c2ccccc2)C(=O)N(c2ccccc2)N1c1ccccc1 (stereo unspecified)
0.00978

* * *

# RECORDED CONDITIONS: in n-butanol, 283.15 K
OUTCOME MEASURE: solubility (mole fraction)

O=C1C(CCS(=O)c2ccccc2)C(=O)N(c2ccccc2)N1c1ccccc1 (stereo unspecified)
0.00169

* * *

# RECORDED CONDITIONS: in n-pentanol, 303.15 K
OUTCOME MEASURE: solubility (mole fraction)

O=C1C(CCS(=O)c2ccccc2)C(=O)N(c2ccccc2)N1c1ccccc1 (stereo unspecified)
0.00627

* * *

# RECORDED CONDITIONS: in 2-butanone, 313.15 K
OUTCOME MEASURE: solubility (mole fraction)

O=C1C(CCS(=O)c2ccccc2)C(=O)N(c2ccccc2)N1c1ccccc1 (stereo unspecified)
0.0388

* * *

# RECORDED CONDITIONS: in acetone, 323.15 K
OUTCOME MEASURE: solubility (mole fraction)

O=C1C(CCS(=O)c2ccccc2)C(=O)N(c2ccccc2)N1c1ccccc1 (stereo unspecified)
0.0745

* * *

# RECORDED CONDITIONS: in isopropanol, 318.15 K
OUTCOME MEASURE: solubility (mole fraction)

O=C1C(CCS(=O)c2ccccc2)C(=O)N(c2ccccc2)N1c1ccccc1 (stereo unspecified)
0.0071

* * *

# RECORDED CONDITIONS: in isopropanol, 293.15 K
OUTCOME MEASURE: solubility (mole fraction)

O=C1C(CCS(=O)c2ccccc2)C(=O)N(c2ccccc2)N1c1ccccc1 (stereo unspecified)
0.00104

* * *

# RECORDED CONDITIONS: in sec-butanol, 313.15 K
OUTCOME MEASURE: solubility (mole fraction)

O=C1C(CCS(=O)c2ccccc2)C(=O)N(c2ccccc2)N1c1ccccc1 (stereo unspecified)
0.00876

* * *

# RECORDED CONDITIONS: in n-pentanol, 313.15 K
OUTCOME MEASURE: solubility (mole fraction)

O=C1C(CCS(=O)c2ccccc2)C(=O)N(c2ccccc2)N1c1ccccc1 (stereo unspecified)
0.00824

* * *

# RECORDED CONDITIONS: in 2-butanone, 308.15 K
OUTCOME MEASURE: solubility (mole fraction)

O=C1C(CCS(=O)c2ccccc2)C(=O)N(c2ccccc2)N1c1ccccc1 (stereo unspecified)
0.0333

* * *

# RECORDED CONDITIONS: in n-propanol, 283.15 K
OUTCOME MEASURE: solubility (mole fraction)

O=C1C(CCS(=O)c2ccccc2)C(=O)N(c2ccccc2)N1c1ccccc1 (stereo unspecified)
0.00198

* * *

# RECORDED CONDITIONS: in n-butanol, 313.15 K
OUTCOME MEASURE: solubility (mole fraction)

O=C1C(CCS(=O)c2ccccc2)C(=O)N(c2ccccc2)N1c1ccccc1 (stereo unspecified)
0.00971
